Biological target: FLJ13397 clone-derived protein (CARP) (Homo sapiens)
Construct: A human full-length cDNA clone was expressed as a protein with an N-terminal His tag; His tag (pDEST17 Gateway vector) (N); made in house; host or cells: Escherichia coli BL21star(DE3)pLysS
Sequence (Q9H8M7 1-445): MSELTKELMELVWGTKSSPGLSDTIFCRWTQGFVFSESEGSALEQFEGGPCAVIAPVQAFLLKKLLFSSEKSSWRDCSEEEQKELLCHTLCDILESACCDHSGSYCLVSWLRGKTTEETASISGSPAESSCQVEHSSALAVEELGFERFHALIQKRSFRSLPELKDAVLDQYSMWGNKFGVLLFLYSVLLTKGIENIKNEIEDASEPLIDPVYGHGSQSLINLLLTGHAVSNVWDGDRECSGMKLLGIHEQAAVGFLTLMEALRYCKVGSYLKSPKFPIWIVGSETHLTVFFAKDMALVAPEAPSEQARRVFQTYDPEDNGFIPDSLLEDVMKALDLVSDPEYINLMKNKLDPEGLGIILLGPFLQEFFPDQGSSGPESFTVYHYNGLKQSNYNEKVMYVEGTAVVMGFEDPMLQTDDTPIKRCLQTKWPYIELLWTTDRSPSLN
Assay: SEC/MS (size exclusion chromatography / mass analysis) interaction analysis between FLJ13397 clone-derived protein and compounds
Assay type: binding
Conditions: compound 100 μM; protein 23.75 μM
Where a name gives a salt, the structure may show the parent alone.
Below, each entry is listed with its recorded spectrum intensity of the extracted mass range (compound in SEC spin column filtrate).
measured.metric: spectrum intensity of the extracted mass range (compound in SEC spin column filtrate)

[
  {
    "compound": "CCCSc1ccc2nc(NC(=O)OC)[nH]c2c1",
    "tgt": "FLJ13397 clone-derived protein (CARP) (Homo sapiens)",
    "measured.value": 6713076
  },
  {
    "compound": "COC(=O)Nc1nc2ccc(C(=O)c3cccs3)cc2[nH]1",
    "tgt": "FLJ13397 clone-derived protein (CARP) (Homo sapiens)",
    "measured.value": 33749400
  },
  {
    "compound": "Nc1nc2ccccc2n1Cc1ccccc1",
    "tgt": "FLJ13397 clone-derived protein (CARP) (Homo sapiens)",
    "measured.value": 32945929
  },
  {
    "compound": "COC(=O)Nc1nc2ccc([S+]([O-])c3ccccc3)cc2[nH]1 (centres unmarked)",
    "tgt": "FLJ13397 clone-derived protein (CARP) (Homo sapiens)",
    "measured.value": 160312456
  },
  {
    "compound": "COC(=O)Nc1nc2ccc(C(=O)c3ccccc3)cc2[nH]1",
    "tgt": "FLJ13397 clone-derived protein (CARP) (Homo sapiens)",
    "measured.value": 15054045
  },
  {
    "compound": "CCCS(=O)(=O)c1ccc2nc(NC(=O)OC)[nH]c2c1",
    "tgt": "FLJ13397 clone-derived protein (CARP) (Homo sapiens)",
    "measured.value": 149841728
  },
  {
    "compound": "Nc1nc2ccccc2[nH]1",
    "tgt": "FLJ13397 clone-derived protein (CARP) (Homo sapiens)",
    "measured.value": 1819414
  },
  {
    "compound": "CCC[S+]([O-])c1ccc2[nH]c(NC(=O)OC)nc2c1 (centres unmarked) [Albendazole Sulfoxide]",
    "tgt": "FLJ13397 clone-derived protein (CARP) (Homo sapiens)",
    "measured.value": 208777846
  },
  {
    "compound": "CCCS(=O)(=O)c1ccc2[nH]c(N)nc2c1",
    "tgt": "FLJ13397 clone-derived protein (CARP) (Homo sapiens)",
    "measured.value": 53411123
  },
  {
    "compound": "OC(c1ccccc1)(c1ccccc1)C1CCNCC1",
    "tgt": "FLJ13397 clone-derived protein (CARP) (Homo sapiens)",
    "measured.value": 219345185
  },
  {
    "compound": "COC(=O)Nc1nc2ccc(S(=O)(=O)c3ccccc3)cc2[nH]1",
    "tgt": "FLJ13397 clone-derived protein (CARP) (Homo sapiens)",
    "measured.value": 63176239
  },
  {
    "compound": "OCCOCCN1CCN(C(c2ccccc2)c2ccc(Cl)cc2)CC1 (centres unmarked) [Hydroxyzine]",
    "tgt": "FLJ13397 clone-derived protein (CARP) (Homo sapiens)",
    "measured.value": 567712336
  },
  {
    "compound": "CC[C@@H](C(=O)[C@@H](C)[C@@H](O)[C@H](C)CCc1ccc(C)c(O)c1C(=O)O)[C@H]1O[C@](CC)([C@H]2CC[C@](O)(CC)[C@H](C)O2)C[C@@H]1C [Lasalocid sodium salt]",
    "tgt": "FLJ13397 clone-derived protein (CARP) (Homo sapiens)",
    "measured.value": 2538387120
  },
  {
    "compound": "COC(=O)Nc1nc2ccccc2[nH]1",
    "tgt": "FLJ13397 clone-derived protein (CARP) (Homo sapiens)",
    "measured.value": 35342827
  },
  {
    "compound": "COc1ccc(CCN2CCC(Nc3nc4ccccc4n3Cc3ccc(F)cc3)CC2)cc1",
    "tgt": "FLJ13397 clone-derived protein (CARP) (Homo sapiens)",
    "measured.value": 1213216132
  },
  {
    "compound": "CCCOc1ccc2nc(NC(=O)OC)[nH]c2c1",
    "tgt": "FLJ13397 clone-derived protein (CARP) (Homo sapiens)",
    "measured.value": 7303166
  },
  {
    "compound": "c1ccc2[nH]c(-c3cscn3)nc2c1",
    "tgt": "FLJ13397 clone-derived protein (CARP) (Homo sapiens)",
    "measured.value": 64811390
  },
  {
    "compound": "CC(C)(C)c1ccc(C(O)CCCN2CCC(C(O)(c3ccccc3)c3ccccc3)CC2)cc1 (centres unmarked)",
    "tgt": "FLJ13397 clone-derived protein (CARP) (Homo sapiens)",
    "measured.value": 175843248
  },
  {
    "compound": "c1ccc2[nH]cnc2c1",
    "tgt": "FLJ13397 clone-derived protein (CARP) (Homo sapiens)",
    "measured.value": 4636579
  },
  {
    "compound": "Oc1ccc(CCN2CCC(Nc3nc4ccccc4n3Cc3ccc(F)cc3)CC2)cc1",
    "tgt": "FLJ13397 clone-derived protein (CARP) (Homo sapiens)",
    "measured.value": 141884756
  }
]
